Data credit: patent US20240400677A1

# system.tested: T1, cynomolgus monkey SIRPγ on CHO cells (cynomolgus monkey, UniProt Q9P1W8 29-386 (human entry))
# T1 construct: also called Cyno SIRPγ CHO
# T1 chain: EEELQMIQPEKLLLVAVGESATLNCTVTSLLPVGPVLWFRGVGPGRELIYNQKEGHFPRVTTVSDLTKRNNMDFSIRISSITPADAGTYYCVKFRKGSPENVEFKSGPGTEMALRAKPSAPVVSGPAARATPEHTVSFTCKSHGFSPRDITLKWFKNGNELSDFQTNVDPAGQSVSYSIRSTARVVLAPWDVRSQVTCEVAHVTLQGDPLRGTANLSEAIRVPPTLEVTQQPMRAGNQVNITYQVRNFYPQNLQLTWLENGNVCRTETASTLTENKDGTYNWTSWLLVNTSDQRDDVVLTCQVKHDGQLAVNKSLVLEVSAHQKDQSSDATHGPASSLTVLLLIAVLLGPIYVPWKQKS
# measurement.description: flow cytometry, myc-scFv PPE
Below, each entry is listed with its recorded MFI fold change over parental CHO.
parameter: MFI fold change over parental CHO (fold)

binder	parameter	unit.abbreviation	recorded.result
Antibody 12 (scFv, V domains shown, scFv in crude PPE, V5/myc-tagged) VH: QVQLVQSGAEVKKPGASVKVSCKASGGTFGSYGINWVRQAPGQGLEWMGWISAYNGNTNYAQKLQGRVTMTRDTSTSTVYMELSSLRSEDTAVYYCARDGIDYGGNSGYDYWGQGTLVTVSS VL: DIQMTQSPSSLSASVGDRVTITCRASQNIRNYLNWYQQKPGKAPKLLIYAASSLQGGVPSRFSGSGSGTDFTLTISSLQPEDFATYYCQQSYNGPYTFGQGTKVEIK	MFI fold change over parental CHO	fold	5.94
Antibody 51 (scFv, V domains shown, scFv in crude PPE, V5/myc-tagged) VH: QVQLVQSGAEVKKPGASVKVSCKASGYTFTRYDINWVRQAPGQGLEWMGWMNPNSGNTGYAQKLQGRVTMTRDTSTSTVYMELSSLRSEDTAVYYCARERVGYCSSTSCLHPLDYWGQGTLVTVSS VL: DIQMTQSPSSLSASVGDRVTITCRASQGIRNDLGWYQQKPGKAPKLLIYSASNLQSGVPSRFSGSGSGTDFTLTISSLQPEDFATYYCQQSYDVPLTFGGGTKVEIK	MFI fold change over parental CHO	fold	18.8
Antibody 23 (scFv, V domains shown, scFv in crude PPE, V5/myc-tagged) VH: QVQLVQSGAEVKKPGASVKVSCKASGGTFSNYDINWVRQAPGQGLEWMGWISAYNGNTNYAQKLQGRVTMTRDTSTSTVYMELSSLRSEDTAVYYCAAEAYGDYSLDPWGQGTLVTVSS VL: DIQMTQSPSSLSASVGDRVTITCQASQGISSYLNWYQQKPGKAPKLLIYAASSLQNGVPSRFSGSGSGTDFTLTISSLQPEDFATYYCQQSYSTPITFGQGTRLEIK	MFI fold change over parental CHO	fold	16.5
Antibody 34 (scFv, V domains shown, scFv in crude PPE, V5/myc-tagged) VH: QVQLVQSGAEVKKPGASVKVSCKASGYTFSNYYMHWVRQAPGQGLEWMGWMNPNSGNTGYAQKFQGRVTMTRDTSTSTVYMELSSLRSEDTAVYYCARASMYSSSGFDYWGQGTLVTVSS VL: DIVMTQSPLSLPVTPGEPASISCRSSQSLLHSNGYNYLDWYLQKPGQSPQLLIYLASTRAPGVPDRFSGSGSGTDFTLKISRVEAEDVGVYYCMQGSHWPPSFGQGTRLEIK	MFI fold change over parental CHO	fold	12
Antibody 36 (scFv, V domains shown, scFv in crude PPE, V5/myc-tagged) VH: QVQLVQSGAEVKKPGASVKVSCKASGYTFTDNYLHWVRQAPGQGLEWMGIIETSGGSTDYAQKFQGRVTMTRDTSTSTVYMELSSLRSEDTAVYYCARSFGGYSYDDAFDIWGQGTTVTVSS VL: DIQMTQSPSSLSASVGDRVTITCQASQGISNYLNWYQQKPGKAPKLLIYAASSLQSGVPSRFSGSGSGTDFTLTISSLQPEDFATYYCQQSYSSPYTFGQGTKVEIK	MFI fold change over parental CHO	fold	37.7
Antibody 41 (scFv, V domains shown, scFv in crude PPE, V5/myc-tagged) VH: QVQLVQSGAEVKKPGSSVKVSCKASGGTFSNYAISWVRQAPGQGLEWMGGIIPIFGSTASYAQKFQGRVTITADESTSTAYMELSSLRSEDTAVYYCARGVGDDTLTDWGQGTLVTVSS VL: DIVMTQSPLSLPVTPGEPASISCRSSQSLLHSNGYNYLDWYLQKPGQSPQLLIYAASSLQSGVPDRFSGSGSGTDFTLKISRVEAEDVGVYYCMQALQTPLTFGGGTKVEIK	MFI fold change over parental CHO	fold	36.1
Antibody 32 (scFv, V domains shown, scFv in crude PPE, V5/myc-tagged) VH: QVQLVQSGAEVKKPGASVKVSCKASGYTFTSYYMYWVRQAPGQGLEWMGWINPNSGNTGYAQKFQGRVTMTRDTSTSTVYMELSSLRSEDTAVYYCAKDRRRGVGLAAAGTSAFDIWGQGTMVTVSS VL: DIQMTQSPSSLSASVGDRVTITCRASQSISNWLAWYQQKPGKAPKLLIYAASSLQSGVPSRFSGSGSGTDFTLTISSLQPEDFATYYCQQSYSTPYTFGQGTKLEIK	MFI fold change over parental CHO	fold	9.63
Antibody 21 (scFv, V domains shown, scFv in crude PPE, V5/myc-tagged) VH: EVQLLESGGGLVQPGGSLRLSCAASGFTLGSYWMHWVRQAPGKGLEWVSLISWDGGSTYYADSVKGRFTISRDNSKNTLYLQMNSLRAEDTAVYYCAKGPWVGYSGYDLNYYYYGMDVWGQGTTVTVSS VL: DIQMTQSPSSLSASVGDRVTITCRASQDIRRALAWYQQKPGKAPKLLIYAASSLQSGVPSRFSGSGSGTDFTLTISSLQPEDFATYYCLQHNSYPPTFGQGTKLEIK	MFI fold change over parental CHO	fold	96.1
Antibody 17 (scFv, V domains shown, scFv in crude PPE, V5/myc-tagged) VH: QVQLVQSGAEVKKPGASVKVSCKASGYTFTRNYVHWVRQAPGQGLEWMGRINPNSGGTNTAQKFQGRVTMTRDTSTSTVYMELSSLRSEDTAVYYCARLGDVAVAASFDYWGQGTLVTVSS VL: DIQMTQSPSSLSASVGDRVTITCRASQSISSYLNWYQQKPGKAPKLLIYDASSLESGVPSRFSGSGSGTDFTLTISSLQPEDFATYYCQQANSFPLTFGPGTKVDIK	MFI fold change over parental CHO	fold	30.1
Antibody 26 (scFv, V domains shown, scFv in crude PPE, V5/myc-tagged) VH: QVQLVQSGAEVKKPGASVKVSCKASGYTFTSYYMHWVRQAPGQGLEWMGRINPNSGGTKYAQKFQGRVTMTRDTSTSTVYMELSSLRSEDTAVYYCARLGSAYFDLWGRGTLVTVSS VL: DIQMTQSPSSLSASVGDRVTITCRASQSVDTWLAWYQQKPGKAPKLLIYEASTLESGVPSRFSGSGSGTDFTLTISSLQPEDFATYYCQQANSFPITFGQGTRLEIK	MFI fold change over parental CHO	fold	40
Antibody 27 (scFv, V domains shown, scFv in crude PPE, V5/myc-tagged) VH: QVQLVQSGAEVKKPGASVKVSCKASGYTFTSHDINWVRQAPGQGLEWMGWMNANNGNAGYAQKFQGRVTMTRDTSTSTVYMELSSLRSEDTAVYYCAKDLSPSSSWSTYYYYYGMDVWGQGTMVTVSS VL: DIQMTQSPSSLSASVGDRVTITCRASQSISNLLAWYQQKPGKAPKLLIYAASSLQSGVPSRFSGSGSGTDFTLTISSLQPEDFATYYCQQSYSTPYTFGQGTKLEIK	MFI fold change over parental CHO	fold	5.81
